biological target: CD-1 mouse plasma proteins; experiment: plasma protein binding, equilibrium dialysis, LC-MS/MS
Non-standard residues stand in square brackets, D forms with d. Groups on a side chain read outwards from the residue. Primed or numbered codes have the meaning given here. No end group written: not given here. *: point of attachment. DOTA = O=C(O)CN1CCN(CC(=O)O)CCN(CC(=O)*)CCN(CC(=O)O)CC1; Butanoyl(4-(4-I-phenyl)) = O=C(CCCc1ccc(I)cc1)*; Butanoyl(4-(4-MePh)) = Cc1ccc(CCCC(=O)*)cc1; FB = fluorobenzaldehyde oxime; PEG3′ = PEG spacer, 3 units
Property Name: Plasma % Bound (%)

The binder listed as Fol-[dH][dS][dH][dT][dA]GFK(DOTA) (not fully specified (residue 5, bridges)) [Compound #6307, Fol-hshta-PEG3-Gly-Phe-Lys(DOTA)] shows Plasma % Bound equal to 40.6

Per the records, this binder ( Fol-[dH][dS][dH][dT][dA]K(FB) (not fully specified (residue 5, bridges)) [Compound #2, Fol-hshta-PEG3-Lys(FB)] ) has Plasma % Bound equal to 20.2

Value of measured Plasma % Bound for the entry Fol-[dH][dS][dH][dT][dA]K(Butanoyl(4-(4-MePh)))K(DOTA) (not fully specified (residue 5, bridges); printed as folate-hshta-PEG3-Lys(MPBA)-Lys(DOTA)) [Compound #2809, folate-hshta-PEG3-Lys(MPBA)-Lys(DOTA) (SEQ ID NO:6)] : 92.1

Lookup result for Fol-[dH][dS][dH][dT][dA]K(Butanoyl(4-(4-I-phenyl)))MVK(DOTA) (not fully specified (residue 5, bridges)) [Compound #1306, folate-hshta-Lys(IPBA)-M-V-Lys(DOTA) (SEQ ID NO:6)] ; measured Plasma % Bound: 97.1

(a) Fol-[dH][dS][dH][dT][dA]K(DOTA) (not fully specified (residue 5, bridges); printed as folate-hshta-PEG3-Lys(DOTA)) [Compound #1189, Fol-hshta-PEG3-Lys(DOTA)]
(b) Fol-[dH][dS][dH][dT][dA]K(Butanoyl(4-(4-MePh)))GFK([PEG3′-DOTA]) (not fully specified (residue 5, bridges)) [Compound #3302, Fol-hshta-Lys(4-MPBA)-Gly-Phe-Lys(PEG3-DOTA)]
I'm curious whether a or b has the smaller Plasma % Bound number. Which is it? // return label of chosen record
a
(a: 29.5%, b: 96.5%)

(A) Fol-[dH][dS][dH][dT][dA]K(Butanoyl(4-(4-MePh)))GFK(DOTA) (not fully specified (residue 5, bridges)) [Compound #6305, folate-hshta-Lys(MPBA)-Gly-Phe-Lys(DOTA) (SEQ ID NO:6)]
(B) [dH][dS][dH][dT][dA]GFK(DOTA) (not fully specified (residue 5, N-terminus, bridges); printed as folate-hshta-Gly-Phe-Lys(DOTA)) [Compound #7327, folate-hshta-Gly-Phe-Lys(DOTA) (SEQ ID NO:6)]
Select one: A or B . Criterion: greater recorded Plasma % Bound. Reply with the label of the item you choose.
A
(A: 96.3%, B: 40.9%)
